Cited source: patent US20250171542A1

# study.system: T1, cynomolgus PD-L1-His (Sino Biological, Cat. 90251-C08H) (cynomolgus, UniProt Q9NZQ7 19-238 (human entry))
# T1 construct: Bought protein; also called Cyno PD-L1; Cynomolgus PD-L1 ECD-His; not shown: His tag
# T1 sequence (Q9NZQ7 other isoform, or with tags, fused parts or gaps C08H C08H limits assumed): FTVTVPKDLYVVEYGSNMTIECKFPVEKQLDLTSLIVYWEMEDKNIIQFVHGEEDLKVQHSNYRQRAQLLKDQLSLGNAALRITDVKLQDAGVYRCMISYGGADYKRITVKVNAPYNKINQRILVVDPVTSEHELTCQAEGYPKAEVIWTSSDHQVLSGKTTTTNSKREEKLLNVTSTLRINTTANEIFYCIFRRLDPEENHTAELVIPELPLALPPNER
# method.description: BLI (Gator), cynomolgus PD-L1
Below, each entry is listed with its recorded koff.
Please state the figure in s⁻¹; there is no need to write the unit.

Example binders with recorded koff:
74A9 (antibody, human IgG1, V domains shown) VH: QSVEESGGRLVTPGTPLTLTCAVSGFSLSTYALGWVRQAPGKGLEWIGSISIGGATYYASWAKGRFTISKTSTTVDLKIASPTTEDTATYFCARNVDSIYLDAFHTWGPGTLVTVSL VL: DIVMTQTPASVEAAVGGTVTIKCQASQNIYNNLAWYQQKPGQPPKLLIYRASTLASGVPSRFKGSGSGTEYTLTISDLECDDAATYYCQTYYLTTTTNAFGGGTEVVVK = 0.000915
56H3 (antibody, human IgG1, V domains shown) VH: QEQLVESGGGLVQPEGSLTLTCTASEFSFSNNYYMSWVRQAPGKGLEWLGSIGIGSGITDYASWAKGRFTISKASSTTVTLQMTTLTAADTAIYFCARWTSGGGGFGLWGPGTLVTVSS VL: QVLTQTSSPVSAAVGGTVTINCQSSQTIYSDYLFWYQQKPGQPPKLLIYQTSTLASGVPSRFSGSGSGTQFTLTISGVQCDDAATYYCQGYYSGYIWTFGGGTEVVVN = 8.7e-05
33H7 (antibody, human IgG1, V domains shown) VH: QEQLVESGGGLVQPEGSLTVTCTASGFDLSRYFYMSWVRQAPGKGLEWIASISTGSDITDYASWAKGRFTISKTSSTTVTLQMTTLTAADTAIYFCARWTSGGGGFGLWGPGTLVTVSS VL: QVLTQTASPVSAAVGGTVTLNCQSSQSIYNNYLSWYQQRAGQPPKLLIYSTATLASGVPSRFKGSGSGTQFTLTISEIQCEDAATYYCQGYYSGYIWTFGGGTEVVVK = 8.1e-05

Query 55H3/76D6 (antibody, human IgG1, V domains shown) VH: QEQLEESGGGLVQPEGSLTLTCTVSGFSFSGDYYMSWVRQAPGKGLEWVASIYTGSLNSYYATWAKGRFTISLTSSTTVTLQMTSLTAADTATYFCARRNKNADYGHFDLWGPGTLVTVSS VL: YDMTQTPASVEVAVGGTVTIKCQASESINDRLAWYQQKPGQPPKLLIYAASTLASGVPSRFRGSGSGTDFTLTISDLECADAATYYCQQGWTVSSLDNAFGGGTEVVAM yields koff of 1.1e-05
